experiment: Pharmacokinetic study in vivo (plasma, LC–MS, noncompartmental); details: both sexes, Sprague-Dawley, rat, po, rats, oral, 5–20 mg/kg, read-out: time to peak concentration in plasma (Tmax)
Test Readout: Tmax

(Q) State, in one line, measured Tmax of O=C(/C=C/c1ccc(O)c(O)c1/C=C/c1ccc(O)c(O)c1)O[C@H](Cc1ccc(O)c(O)c1)C(=O)O
(A) ≤ 1 h

----------
experiment: Bidirectional transport experiments in the Caco-2 cell culture model; assay type: in vitro ADME; details: human, Caco-2, pH 7.4, Sal A 10^–4/3 mol/L, HBSS pH 7.4, VC 10^−4 mol/L; read-out: Papp Basolateral → apical
Test Readout: Papp B→A at 180 min (×10⁻⁶ cm/s)
# output: bare number, implied unit ×10⁻⁶ cm/s

(Q) State, in one line, measured Papp B→A at 180 min of O=C(/C=C/c1ccc(O)c(O)c1/C=C/c1ccc(O)c(O)c1)O[C@H](Cc1ccc(O)c(O)c1)C(=O)O [Sal A, Salvianolic acid A]
(A) 0.508

The values you see were collected from paper PMC6130628.
